# measurement_target: bradykinin 1 receptor (B1R) of the rat (Rattus norvegicus, UniProt P97583)
# Construct: expressed in transfected cells; host or cells: CHO K1 cells
# Sequence (P97583 whole entry): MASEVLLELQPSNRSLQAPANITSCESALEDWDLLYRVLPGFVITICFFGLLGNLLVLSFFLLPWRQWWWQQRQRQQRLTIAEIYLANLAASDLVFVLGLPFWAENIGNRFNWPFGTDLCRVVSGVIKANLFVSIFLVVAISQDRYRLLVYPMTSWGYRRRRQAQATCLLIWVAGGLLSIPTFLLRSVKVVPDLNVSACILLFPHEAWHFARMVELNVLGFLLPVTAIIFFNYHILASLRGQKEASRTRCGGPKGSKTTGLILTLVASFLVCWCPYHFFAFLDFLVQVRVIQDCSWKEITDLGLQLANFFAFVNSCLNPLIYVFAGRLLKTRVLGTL
# assay_protocol: Functional investigation on the rat bradykinin 1 receptor (B1R), Ca2+ FLIPR assay in CHO K1 rB1R cells
# Format: cell-based
# experimental_context: CHO-K1, B1R antagonism rat; test substance 10 μM; Ca2+ FLIPR, CHO K1 rB1R cells; read-out: B1R Ant. r [10 μM] % Inhibition
measured_metric: inhibition at 10 µM (%)
Write the number in % without appending the unit.

Look over these answered cases.
[
  {
    "compound": "COc1cc(C)c(S(=O)(=O)N(C)CCOCC(=O)NC2CCC(C(c3ccccc3)N3CCCC3)CC2)c(C)c1 (centres unmarked)",
    "inhibition at 10 µM (%)": 89
  },
  {
    "compound": "COc1cc(C)c(S(=O)(=O)N2CCC(OCC(=O)NCC3CCC(C(c4cccs4)N(C)C)CC3)C2)c(C)c1 (centres unmarked)",
    "inhibition at 10 µM (%)": 100
  }
]

Lab note: next compound to report on.
*Q* Sample O=C(COCC1CCCCN1S(=O)(=O)c1c(Cl)cc(Cl)cc1Cl)NCC1CCC(C(CCc2ccccc2)N2CCOCC2)CC1 (centres unmarked) — what was its inhibition at 10 µM?
*A* 76

---

# measurement_target: serotonin (5-HT) reuptake (Rattus norvegicus, UniProt P31652)
# Construct: synaptosomes are freshly isolated from areas of the rat brain; from tissue; host or cells: rat brain synaptosomes (P2 fraction)
# Sequence (P31652 whole entry): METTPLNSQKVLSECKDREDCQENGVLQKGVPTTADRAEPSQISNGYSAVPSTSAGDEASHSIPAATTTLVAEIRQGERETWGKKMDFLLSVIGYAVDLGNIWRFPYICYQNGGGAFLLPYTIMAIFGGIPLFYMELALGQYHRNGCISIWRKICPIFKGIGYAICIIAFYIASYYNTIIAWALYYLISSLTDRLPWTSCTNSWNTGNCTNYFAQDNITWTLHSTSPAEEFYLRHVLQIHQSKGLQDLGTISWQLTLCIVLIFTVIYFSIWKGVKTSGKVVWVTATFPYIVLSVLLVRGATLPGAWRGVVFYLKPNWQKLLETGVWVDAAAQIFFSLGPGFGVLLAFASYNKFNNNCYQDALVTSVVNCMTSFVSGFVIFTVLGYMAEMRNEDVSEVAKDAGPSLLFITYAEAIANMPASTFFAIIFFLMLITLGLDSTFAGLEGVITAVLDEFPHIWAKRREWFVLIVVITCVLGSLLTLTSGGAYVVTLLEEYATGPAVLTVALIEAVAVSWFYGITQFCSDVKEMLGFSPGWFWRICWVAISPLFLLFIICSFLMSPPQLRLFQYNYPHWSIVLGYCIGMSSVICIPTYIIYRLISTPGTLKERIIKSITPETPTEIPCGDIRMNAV
# assay_protocol: Inhibition of serotonin (5HT) reuptake in synaptosomes from rat brain
# Type: biochemical
# experimental_context: test concentration of 10 μM
Grouping rule (5-HT (inhibition of reuptake of serotonin, % inhibition)): bottom (below 80%), middle (80% to below 90%), top (90% or more)

Example cases with answers are listed next.
[
  {
    "compound": "Cc1ccc(S(=O)(=O)N2CCC(OCC(=O)NCCC3CCC(C(c4cccc(F)c4)N(C)C)CC3)C2)cc1 (stereo not shown)",
    "measurement_target": "serotonin (5-HT) reuptake (Rattus norvegicus, UniProt P31652)",
    "classification": "middle"
  },
  {
    "compound": "COc1ccc(S(=O)(=O)N(C)CCOCC(=O)NCCC2CCC(C(c3cccc(F)c3)N(C)C)CC2)cc1 (stereo not shown)",
    "measurement_target": "serotonin (5-HT) reuptake (Rattus norvegicus, UniProt P31652)",
    "classification": "middle"
  },
  {
    "compound": "CN(C)C(c1ccc(F)cc1)C1CCC(CNC(=O)COCCN(C)S(=O)(=O)c2c(Cl)cc(Cl)cc2Cl)CC1 (stereo not shown)",
    "measurement_target": "serotonin (5-HT) reuptake (Rattus norvegicus, UniProt P31652)",
    "classification": "top"
  },
  {
    "compound": "CN(C)C(c1cccc(F)c1)C1CCC(CNC(=O)COC2CCCN(S(=O)(=O)c3ccccc3)C2)CC1 (stereo not shown)",
    "measurement_target": "serotonin (5-HT) reuptake (Rattus norvegicus, UniProt P31652)",
    "classification": "top"
  },
  {
    "compound": "Cc1cc(C)c(S(=O)(=O)N2CCC(OCC(=O)NCC3CCC(C(CCc4ccccc4)N(C)C)CC3)C2)c(C)c1 (stereo not shown)",
    "measurement_target": "serotonin (5-HT) reuptake (Rattus norvegicus, UniProt P31652)",
    "classification": "middle"
  },
  {
    "compound": "CN(C)C(c1cccc(F)c1)C1CCC(CNC(=O)COCC2CCCN(S(=O)(=O)c3ccccc3)C2)CC1 (stereo not shown)",
    "measurement_target": "serotonin (5-HT) reuptake (Rattus norvegicus, UniProt P31652)",
    "classification": "top"
  },
  {
    "compound": "COC(=O)C(=O)NCCC1CCC(C(c2ccccc2)N(C)C)CC1 (stereo not shown)",
    "measurement_target": "serotonin (5-HT) reuptake (Rattus norvegicus, UniProt P31652)",
    "classification": "bottom"
  },
  {
    "compound": "COc1cc(C)c(S(=O)(=O)N(CCOCC(=O)NCC2CCC(C(c3ccc(Cl)cc3)N(C)C)CC2)Cc2ccccc2)c(C)c1C (stereo not shown)",
    "measurement_target": "serotonin (5-HT) reuptake (Rattus norvegicus, UniProt P31652)",
    "classification": "bottom"
  }
]

*Q* Exam item: assign CN(C)C(c1cccc(F)c1)C1CCC(CNC(=O)COC2CCN(S(=O)(=O)c3ccc(Cl)cc3)C2)CC1 (stereo not shown) to the correct category.
*A* middle

*Q* Moving on to COc1cc(C)c(S(=O)(=O)N2CCC(CCOCC(=O)NCC3CCC(C(c4cccc(F)c4)N(C)C)CC3)CC2)c(C)c1C (stereo not shown)
*A* middle

*Q* Moving on to COc1ccc(S(=O)(=O)N(C)CCOCC(=O)NCC2CCC(C(c3ccc(F)cc3)N(C)C)CC2)cc1OC (stereo not shown)
*A* bottom

*Q* Moving on to COc1ccc(S(=O)(=O)N2CCC(OCC(=O)NCC3CCC(C(c4ccc(F)cc4)N(C)C)CC3)C2)cc1OC (stereo not shown)
*A* middle
